These entries and their values trace back to the OligoGym collection.

# Assay system: NAGS
# Method: pooled miR-30 sensor sort-seq; sequence = guide strand; further: reference of the scale not given here
# Condition description: shRNA
Endpoint: sensor-assay potency score (higher = more potent)

• TTGAGGAAGATGATTTTGGTGG = -0.197
• TTAGAGTGAGTCGAGTTGGGGT = -0.187
• TTTAGAGTGAGTCGAGTTGGGG = -0.776
• TTGATGGGGTTGGTGACCCGGG = -1.22
• TCACTGTGTTTGAAGTACCAGG = -0.966
• TTGCACACCAGGTCCAGGTCGG = -0.37
• TGTAGCTTTAGAGTGAGTCGAG = 0.177

---

# Assay system: RNF14
# Method: pooled miR-30 sensor sort-seq; sequence = guide strand
# Condition description: shRNA
Endpoint: sensor-assay potency score (higher = more potent)

• TATCTTGAAATTCTGTGGCAAA = -1.02
• TTACTTTGTGTACTTGACGGAA = -0.835
• TTTGAGTTCTTCTCTAGCCACT = -1.03
• TTCTTCTCTAGCCACTCCTTAC = -0.95
• TAAAACATGGTGAACCAGGGTC = 0.147
• TTTATTAGCCTCATCCGCTTGC = 0.884
• ATGTCATCTTGTTACATCCGTC = -0.926

---

# Assay system: C9orf72
# Method: pooled miR-30 sensor sort-seq; sequence = guide strand
# Condition description: shRNA
Endpoint: sensor-assay potency score (higher = more potent)

* TAAATCAAGGTCTATCTTCAGG | -0.851
* TATTTCTTCAGGAACACTGTGT | 0.74
* TTAATCTATCAACACACACTCT | -0.521
* TAAAATAAACAAAACACCCTAA | 0.0855
* TTGACATCCACATCTATGTGTG | -0.37
* TTTCACTAGAGTGTCTCTGTGT | 0.565

---

Below is a list of entries, each paired with its recorded sensor-assay potency score (higher = more potent) value.
# Assay system: KIF26A
# Method: pooled miR-30 sensor sort-seq; sequence = guide strand
# Condition description: shRNA
Endpoint: sensor-assay potency score (higher = more potent)

• TTGTCCTTGGTCTTGGAGGCGG = -1.26
• TACTGGTAGACGTGCAGCGTGA = -1.25
• TCAAACTCATCATTGATGCTGC = 0.23
• TTCTTGGGGGACTTGAGGCTGC = -0.669

---

# Assay system: ERCC2
# Method: pooled miR-30 sensor sort-seq; sequence = guide strand
# Condition description: shRNA
Endpoint: sensor-assay potency score (higher = more potent)

- TTAGCAAGGAGGGTGAGCGGGG: -1.04
- TGAATACACAAGTTTTTGCGGG: 0.0838
- TGACAGACTGGAAACGCTCAAA: -0.97
- AACAGGGATACTGTCTTCCCGG: -1.06
- TCGAAGCTCTTCAATCACCTTC: 0.181
- TTTGATCCTGAGCACCGTCTTC: -1.12
- TTGCGCTGGATGCACACGCGCT: -1.42
- TCGTCTGTCTCTTTGATCCTGA: -0.221
- TCGATGATGATGGTGAAGCCTT: -1.27
- TAGCTATAAACCACCACATTGG: -1.42
- TAGAAGTTGAGCAACTTTCGAA: 0.118
- TATCGAGCAAGGAAGTATGGGC: 0.161
- ATTCTCACGAATCTGGAACTGG: -0.416
- TGTAGGAGAACTGCTCGGGGTA: -0.658
- TCAAATTCCTCATAGAATCGGC: -0.0111
- TGGAAGTCCAGGATCTTGGGGT: 0.059
- TTCCCATCGACGTCCTTCCCAA: -0.665
- TTGAGCAACTTTCGAAGCTCTT: -0.541
- TTGAGCTCCCGCATGTAGGAGA: -0.477
- TTGGGGTAGATGTCCAGCGGGG: -1.14
- TCTGGCACAGTTCTTGAGCAGT: -0.9
